Reference source for all entries: patent EP4813991A1

molecular target: CDK12 (Homo sapiens); experiment: Cellular CDK12 inhibitory activity assay (Ser2 phosphorylation of RNA polymerase II subunit B1 CTD in MDA-MB-231 cells); type: cell-based; design: using MDA-MB-231 breast cancer cells; endogenous in cells; host or cells: MDA-MB-231; conditions: MDA-MB-231 cells, 6 hours treatment; read-out: pRpbl CTD S2 IC50
Sequence (Q9NYV4 whole entry, species assumed): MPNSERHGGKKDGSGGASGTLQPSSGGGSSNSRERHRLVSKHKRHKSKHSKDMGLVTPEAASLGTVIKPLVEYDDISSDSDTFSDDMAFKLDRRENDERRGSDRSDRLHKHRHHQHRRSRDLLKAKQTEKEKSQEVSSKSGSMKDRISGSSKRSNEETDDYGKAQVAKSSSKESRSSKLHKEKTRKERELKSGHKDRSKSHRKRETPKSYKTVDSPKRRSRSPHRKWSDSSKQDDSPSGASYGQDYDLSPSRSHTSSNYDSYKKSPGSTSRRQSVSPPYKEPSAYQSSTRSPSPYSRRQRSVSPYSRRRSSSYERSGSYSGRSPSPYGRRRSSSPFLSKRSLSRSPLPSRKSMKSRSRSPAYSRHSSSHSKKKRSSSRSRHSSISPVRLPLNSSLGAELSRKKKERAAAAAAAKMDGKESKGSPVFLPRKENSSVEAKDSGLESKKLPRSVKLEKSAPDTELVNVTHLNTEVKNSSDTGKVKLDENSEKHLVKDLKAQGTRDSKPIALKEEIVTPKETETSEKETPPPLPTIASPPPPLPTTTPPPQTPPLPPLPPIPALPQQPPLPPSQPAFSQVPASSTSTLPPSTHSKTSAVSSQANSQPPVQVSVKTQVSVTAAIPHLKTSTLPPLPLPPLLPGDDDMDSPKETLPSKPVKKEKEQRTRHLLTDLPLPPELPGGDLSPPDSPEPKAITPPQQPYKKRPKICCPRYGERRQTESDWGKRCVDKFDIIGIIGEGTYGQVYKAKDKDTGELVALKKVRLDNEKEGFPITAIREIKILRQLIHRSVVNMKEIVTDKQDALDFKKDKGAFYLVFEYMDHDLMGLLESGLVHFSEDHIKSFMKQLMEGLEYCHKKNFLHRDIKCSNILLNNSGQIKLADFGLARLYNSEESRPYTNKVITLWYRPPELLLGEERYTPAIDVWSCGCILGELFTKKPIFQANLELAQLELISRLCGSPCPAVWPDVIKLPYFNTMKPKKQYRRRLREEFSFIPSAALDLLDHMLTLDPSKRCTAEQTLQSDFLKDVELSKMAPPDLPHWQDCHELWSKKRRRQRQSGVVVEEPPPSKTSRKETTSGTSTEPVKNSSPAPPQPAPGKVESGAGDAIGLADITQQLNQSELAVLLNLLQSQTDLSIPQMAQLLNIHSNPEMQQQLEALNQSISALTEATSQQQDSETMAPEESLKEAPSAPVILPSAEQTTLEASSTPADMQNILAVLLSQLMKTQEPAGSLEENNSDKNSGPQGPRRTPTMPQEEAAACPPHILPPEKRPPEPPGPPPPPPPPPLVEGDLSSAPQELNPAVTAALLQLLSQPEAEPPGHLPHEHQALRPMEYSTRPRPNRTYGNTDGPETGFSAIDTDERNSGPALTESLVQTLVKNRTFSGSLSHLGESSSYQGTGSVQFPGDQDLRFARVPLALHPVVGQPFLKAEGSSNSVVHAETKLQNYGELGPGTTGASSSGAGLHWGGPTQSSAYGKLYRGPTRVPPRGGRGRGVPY
Sequence (O75909 whole entry partner, species assumed): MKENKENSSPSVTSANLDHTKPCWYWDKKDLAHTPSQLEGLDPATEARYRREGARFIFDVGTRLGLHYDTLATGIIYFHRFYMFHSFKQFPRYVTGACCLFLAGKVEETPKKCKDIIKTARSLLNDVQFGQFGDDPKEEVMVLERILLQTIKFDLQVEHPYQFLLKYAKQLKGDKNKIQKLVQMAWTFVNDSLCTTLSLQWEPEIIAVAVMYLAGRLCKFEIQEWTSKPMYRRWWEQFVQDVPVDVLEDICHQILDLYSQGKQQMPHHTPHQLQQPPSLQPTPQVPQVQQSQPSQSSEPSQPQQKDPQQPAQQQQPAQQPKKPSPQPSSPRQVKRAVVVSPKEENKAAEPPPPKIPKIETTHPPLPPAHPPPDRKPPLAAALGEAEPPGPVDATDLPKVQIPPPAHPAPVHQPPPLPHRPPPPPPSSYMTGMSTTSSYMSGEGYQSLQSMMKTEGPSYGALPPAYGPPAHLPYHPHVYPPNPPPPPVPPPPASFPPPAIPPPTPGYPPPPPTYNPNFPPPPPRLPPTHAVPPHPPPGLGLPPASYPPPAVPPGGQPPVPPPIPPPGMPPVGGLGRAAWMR
observable: IC50

Some solved cases for reference:
1. FC(F)(F)c1cnc2c(NCc3nc4ccccc4[nH]3)cc(N3CCOCC3)nn12 [Example 69] | 300 to 3000 nM
2. NC(=O)C1CN(c2cc(NCc3nc4cc(Cl)c(Cl)cc4[nH]3)c3ncc(C(F)(F)F)n3n2)C1 [Example 65] | < 300 nM
3. N#CC1(O)CCN(c2cc(NCc3nc4cc(Cl)c(Cl)cc4[nH]3)c3ncc(C(F)(F)F)n3n2)C1 (centres unmarked) [Example 61] | < 300 nM
4. Fc1ccc2nc(CNc3cc(N4CCOCC4)nn4c(C(F)(F)F)cnc34)[nH]c2c1F [Example 6] | < 300 nM
5. O=C(CO)NC1CCN(c2cc(NCc3nc4cc(Cl)c(Cl)cc4[nH]3)c3ncc(C(F)(F)F)n3n2)CC1 [Example 115] | < 300 nM
6. FC(F)(F)c1cnc2c(NCc3cc4ncccn4n3)cc(N3CCOCC3)nn12 [Example 89] | > 3000 nM
7. NC1CCN(c2cc(NCc3nc4ccc(F)c(F)c4[nH]3)c3ncc(C(F)(F)F)n3n2)CC1 [Example 18] | < 300 nM

Consider the additional compound presented here.
Form field, IC50 with CDK12 (Homo sapiens), item FC(F)(F)c1cnc2c(NCc3nc4cc(Cl)c(Cl)cc4[nH]3)cc(N3CCNCC3)nn12 [Example 57] : < 300 nM
